Biological target: Cannabinoid receptor 1 (Homo sapiens)
Sequence (P21554 whole entry): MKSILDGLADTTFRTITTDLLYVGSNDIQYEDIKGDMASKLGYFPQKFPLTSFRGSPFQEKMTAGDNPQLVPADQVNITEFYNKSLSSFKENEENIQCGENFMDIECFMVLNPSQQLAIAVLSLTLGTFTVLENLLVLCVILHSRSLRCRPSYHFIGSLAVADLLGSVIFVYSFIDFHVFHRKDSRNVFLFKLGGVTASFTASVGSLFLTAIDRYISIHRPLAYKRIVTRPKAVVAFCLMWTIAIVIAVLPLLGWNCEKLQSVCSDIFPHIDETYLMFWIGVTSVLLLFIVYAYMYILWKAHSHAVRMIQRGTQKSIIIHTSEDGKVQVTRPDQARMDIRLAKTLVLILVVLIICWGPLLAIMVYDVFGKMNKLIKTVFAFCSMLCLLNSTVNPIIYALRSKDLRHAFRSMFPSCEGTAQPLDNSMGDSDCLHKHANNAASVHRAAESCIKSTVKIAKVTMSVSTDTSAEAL
Assay: Agonist activity at human CB1 receptor expressed in yeast cells
pEC50: −log10 of the molar value.
Would you kindly list pEC50 for each of these molecules?

// below: answered molecules
{"sampleSmiles": "O=C(c1cc(-c2cccc(Cl)c2Cl)cnc1N1CCCCCC1)N1CCOCC1", "measuredParameter": "pEC50", "result": 5.00}
{"sampleSmiles": "FC(F)(F)c1cc(N2CCCCCC2)ncc1-c1cccc(Cl)c1Cl", "measuredParameter": "pEC50", "result": "< 4.50"}
{"sampleSmiles": "Clc1cccc(-c2ccc(N3CCCCCC3)nc2)c1Cl", "measuredParameter": "pEC50", "result": 5.00}
{"sampleSmiles": "O=C(O)c1cc(-c2cccc(Cl)c2Cl)cnc1N1CCCCCC1", "measuredParameter": "pEC50", "result": "< 4.50"}
{"sampleSmiles": "N#Cc1cc(-c2cccc(Cl)c2Cl)cnc1N1CCCCCC1", "measuredParameter": "pEC50", "result": "< 4.50"}
{"sampleSmiles": "N#Cc1cc(N2CCCCCC2)ncc1-c1cccc(Cl)c1Cl", "measuredParameter": "pEC50", "result": 5.00}

Fill in pEC50 for each of the 2 molecules listed.
1. CN(C)C(=O)c1cc(-c2cccc(Cl)c2Cl)cnc1N1CCCCCC1
2. FC(F)(F)c1cc(-c2cccc(Cl)c2Cl)cnc1N1CCCCCC1

[A]
["< 4.50", "< 4.50"]
